# Tested on: Staphylococcus aureus MSSA 53.154
# TEST_NAME: Murine experimental septicaemia, in vivo efficacy
# Set-up: species or system mice
# ASSAY_SETUP: sc, mice, subcutaneously at 1 and 6 h post infection, survival on day 9, hybrid molecules formulated in water as their sodium salt, read-out: ED50
Listing of entries alongside the reported ED50.

COMPOUND | TARGET_OF_ASSAY | ED50 [mg/kg]
CC(=O)OCC1=C(C(=O)O)N2C(=O)[C@@H](NC(=O)CNc3cc(C)nc4ccccc34)[C@H]2SC1 | Staphylococcus aureus MSSA 53.154 | 0.13
CO/N=C(\C(=O)N[C@@H]1C(=O)N2C(C(=O)O)=C(CSc3nc(=O)c(=O)[nH]n3C)CS[C@H]12)c1csc(N)n1 [Ceftriaxone, reference compound] | Staphylococcus aureus MSSA 53.154 | 0.09
CC(=O)OCC1=C(C(=O)O)N2C(=O)[C@@H](NC(=O)CNc3ccnc4cc(Cl)ccc34)[C@H]2SC1 | Staphylococcus aureus MSSA 53.154 | 0.04
CC(=O)OCC1=C(C(=O)O)N2C(=O)[C@@H](NC(=O)CNc3ccnc4cc(C(F)(F)F)ccc34)[C@H]2SC1 | Staphylococcus aureus MSSA 53.154 | 0.16
